Origin of values: PubChem BioAssay

Assay: human hepatoma cell viability loss – ATP luminescence, cytotoxicity control for P. falciparum antimalarial project, primary screen (AID 2303);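 note: 0% = DMSO wells and 100% = digitonin-killed cells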
Details: HepG2 viability, 24-48 h, at 10 µM
Calls of active or inactive are those of the source.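 Rule for the calls: active = inhibition above 50%; inactive = the rest.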
Pick one and only one: active, inactive

Illustrative cases are given below, each with its answer.
compound	cat
CCCCc1cc(NCC)nc(Nc2ccc(OC)cc2)n1	inactive
O=C(NCCc1ccccc1)N(Cc1cccc(-c2ccc(CNCc3ccc4c(c3)OCO4)cc2)c1)C1CCN(Cc2ccccc2)CC1	inactive
O=C(Nc1cccc(-c2cccc(-c3nc4ccc(C(F)(F)F)cc4[nH]3)c2)c1)c1csnn1	inactive
CCCCN=C(N)c1ccc(OCCCCCOc2ccc(C(N)=NCCCC)cc2)cc1	inactive
Nc1c(-c2ccc(C(=O)NCCNCc3ccccc3)cc2)cnn1-c1ccc(C(F)(F)F)cc1	inactive
CCN(CC)CCN(CCN(CC)CC)c1ccc(-c2nc3cc(Cl)c(Cl)cc3[nH]2)cc1	inactive
Cc1ccc(NC(=O)Nc2ccccc2)cc1-c1ccc(C(=O)Nc2ccncc2)cc1	active
COc1ccc2nccc([C@@H](O)CN3CCC(NC(=O)/C=C/c4cc([N+](=O)[O-])ccc4OC)CC3)c2c1	inactive
COc1ccc2nccc(NC(=O)C3(O)CCC(NCc4ccc5c(c4)NCCS5)CC3)c2n1 (stereo unspecified)	inactive
Cc1cc(NN=Cc2ccccc2Cl)c2ccc(F)cc2n1	inactive

Please look at the following compound next.
### Prompt For this compound, state the assay outcome: COc1cc(NCCCNC(=O)c2ccc(Cl)c(Cl)c2)nc2ccccc12
### Response inactive

====

This listing pairs compounds with measured inhibition.
Molecular target: L-lactate dehydrogenase (Plasmodium falciparum (isolate CDC / Honduras)) (UniProt Q27743)
Sequence (Q27743 whole entry, looked up): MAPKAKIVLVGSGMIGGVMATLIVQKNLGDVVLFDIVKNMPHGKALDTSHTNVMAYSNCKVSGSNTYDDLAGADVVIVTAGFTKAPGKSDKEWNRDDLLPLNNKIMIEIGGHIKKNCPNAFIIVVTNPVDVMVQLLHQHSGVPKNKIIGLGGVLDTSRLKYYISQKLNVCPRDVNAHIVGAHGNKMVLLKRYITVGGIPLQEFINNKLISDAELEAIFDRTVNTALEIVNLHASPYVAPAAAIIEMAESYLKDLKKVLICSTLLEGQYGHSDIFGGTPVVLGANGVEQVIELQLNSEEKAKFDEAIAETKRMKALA
Assay: PfLDH activity inhibition – cell lysate, 3D7 strain, counter-screen for P. falciparum growth inhibition project (AID 2304);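 note: 0% = vehicle and 100% = reference inhibitor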
Settings: P. falciparum 3D7 crude extract, LDH APAD/NBT absorbance; at 2 µM; stronger effect = higher value
Numeric only. Scale: %

1) Cc1[nH]c(C)c(-c2ccc(OCc3ccc(F)cc3)cc2)c(=O)c1Cl -1
2) C=CCc1cc(Br)ccc1OCCCON1C(N)=NC(N)=NC1(C)C 2

Please find the next compound below.
### Prompt For the compound shown here, Clc1cc(Nc2ccnc3ccc(Br)cc23)ccc1Oc1ccc(Cl)c2ccccc12 , give the reported inhibition.
### Response 3

====

Experiment: human hepatoma cell viability loss – ATP luminescence, cytotoxicity control for P. falciparum antimalarial project, primary screen (AID 2303);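 note: 0% = DMSO wells and 100% = digitonin-killed cells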
Settings: HepG2 viability, 24-48 h, at 10 µM
Activity calls are given as the source filed them.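 The calls were made as follows: active = inhibition above 50%; inactive = the rest.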
The categories you may choose from are active, inactive

compound	cat
CCN(CCO)Cc1ccc(-c2ccc(NS(=O)(=O)c3cccc4cccnc34)cc2)cc1	inactive

### Prompt Could you please tell me the result logged for Nc1nc(N)c2cc(NC(=O)c3ccc(Cl)c(Cl)c3)ccc2n1 in this assay?
### Response active

### Prompt Which outcome was assigned to c1ccc(CCNCc2ccc(-c3cccc(-c4nc5ccccc5[nH]4)c3)cc2)nc1 in this test?
### Response inactive

### Prompt What is the recorded call for this compound in the test? CN1CCN(CCCN(Cc2ccc(-c3cccc(CNC4CCCC4)c3)cc2)C(=O)/C=C/c2ccccc2)CC1
### Response inactive

### Prompt Outcome logged for O=C(Cn1c(CCc2cccc(F)c2F)cc(=O)c2cccnc21)N(CCN1CCCC1)Cc1ccc(-c2ccc(C(F)(F)F)cc2)cc1 in this assay:
### Response inactive

### Prompt Which result was noted for this compound in the test: C=Cc1sc(CNCCCNc2cc(=O)c3ccccc3[nH]2)c(C)c1Br
### Response inactive
